Experiment: Pharmacokinetics of MNP in the rat (plasma, LC/MS/MS)
Assay type: in vivo, male Sprague-Dawley rats
Conditions: male, Sprague-Dawley, plasma, iv, 5 mg/kg i.v., approximate value
Protocol: Pharmacokinetic experiments were conducted. […] The samples were collected in heparin-coated microtainers, spun down in a microcentrifuge (14,000 rpm for 7 minutes) to separate out the blood plasma and frozen until analyzed. Plasma levels were quantitated by LC/MS/MS analysis (Applied Biosystems/MDS SCIEX API 3000). […]

mol: C[C@@H]1CC=NN1C(=O)c1cccnc1
Cmax: ~6550 ng/mL

###

test: Pharmacokinetics of MNP in the rat (plasma, LC/MS/MS); format: in vivo, male Sprague-Dawley rats; details: male, Sprague-Dawley, plasma, intravenous, 5 mg/kg i.v., 5 min, mean ± s.e.m., 3 rats, read-out: MNP plasma levels
measured_parameter: concentration at 5 min

mol: C[C@@H]1CC=NN1C(=O)c1cccnc1
observed_measurement: 6550 ng/mL

###

assay: Pharmacokinetics of MNP in the rat (plasma, LC/MS/MS); assay type: in vivo, male Sprague-Dawley rats; details: male, Sprague-Dawley, plasma, intravenous, 5 mg/kg i.v., 240 min, mean ± s.e.m., 3 rats, read-out: MNP plasma levels

mol: C[C@@H]1CC=NN1C(=O)c1cccnc1
endpoint_unit: ng/mL
concentration at 240 min: 13

###

assay: Pharmacokinetics of MNP in the rat (plasma, LC/MS/MS); format: in vivo, male Sprague-Dawley rats; settings: male, Sprague-Dawley, plasma, po, 50 mg/kg p.o., approximate value, read-out: ˜t1/2

molecule: C[C@@H]1CC=NN1C(=O)c1cccnc1 [MNP]
half-life: ~2.5 h

###

test: Pharmacokinetics of MNP in the rat (plasma, LC/MS/MS); type: in vivo, male Sprague-Dawley rats; details: male, Sprague-Dawley, plasma, oral, 50 mg/kg p.o., 60 min, mean ± s.e.m., 3 rats, read-out: MNP plasma levels

compound: C[C@@H]1CC=NN1C(=O)c1cccnc1 [MNP]
concentration at 60 min: 9980 ng/mL

###

test: Pharmacokinetics of MNP in the rat (plasma, LC/MS/MS); assay type: in vivo, male Sprague-Dawley rats; conditions: male, Sprague-Dawley, plasma, iv, 5 mg/kg i.v., approximate value, Clearance = Dose/AUC
measured_parameter: clearance

mol: C[C@@H]1CC=NN1C(=O)c1cccnc1
measured_parameter: clearance
observed_measurement: ~5.6 mL/min

###

Assay: Pharmacokinetics of MNP in the rat (plasma, LC/MS/MS)
Format: in vivo, male Sprague-Dawley rats
Conditions: male, Sprague-Dawley, plasma, po, 200 mg/kg p.o., approximate value
Procedure: Pharmacokinetic experiments were conducted. […] The samples were collected in heparin-coated microtainers, spun down in a microcentrifuge (14,000 rpm for 7 minutes) to separate out the blood plasma and frozen until analyzed. Plasma levels were quantitated by LC/MS/MS analysis (Applied Biosystems/MDS SCIEX API 3000). […]
measured_parameter: Tmax

mol: C[C@@H]1CC=NN1C(=O)c1cccnc1
observed_measurement: ~5 min

###

assay: Pharmacokinetics of MNP in the rat (plasma, LC/MS/MS); assay type: in vivo, male Sprague-Dawley rats; conditions: male, Sprague-Dawley, plasma, po, 50 mg/kg p.o., approximate value
measured_parameter: Cmax

mol: C[C@@H]1CC=NN1C(=O)c1cccnc1
observed_measurement: ~16000 ng/mL

###

test: Pharmacokinetics of MNP in the rat (plasma, LC/MS/MS); format: in vivo, male Sprague-Dawley rats; settings: male, Sprague-Dawley, plasma, intravenous, 5 mg/kg i.v., 1440 min, mean ± s.e.m., 3 rats, read-out: MNP plasma levels

compound: C[C@@H]1CC=NN1C(=O)c1cccnc1 [MNP]
concentration at 1440 min, ng/mL: 2
